test: Half life in Sprague-Dawley rat at 2.724 mg/kg, iv; assay type: ADME, organism-based; settings: in vivo

mol	units_text	half-life
CO[C@H]1C[C@@H]2CC[C@@H](C)[C@@](O)(O2)C(=O)C(=O)N2CCCC[C@H]2C(=O)O[C@H]([C@H](C)C[C@@H]2CC[C@@H](OCCOC(=O)CSC[C@H](NC(=O)CC[C@H](N)C(=O)O)C(=O)NCC(=O)O)[C@H](OC)C2)CC(=O)[C@H](C)/C=C(\C)[C@@H](O)[C@@H](OC)C(=O)[C@H](C)C[C@H](C)\C=C/C=C/C=C/1C	h	2.3

###

assay: Drug uptake in Sprague-Dawley rat blood at 10 mg/kg, po after 24 hrs by HPLC method; assay type: ADME, organism-based; conditions: read-out: Drug uptake
assay_endpoint: concentration at 24 h (ng/mL)

mol	assay_endpoint	reading
CO[C@H]1C[C@@H]2CC[C@@H](C)[C@@](O)(O2)C(=O)C(=O)N2CCCC[C@H]2C(=O)O[C@H]([C@H](C)C[C@@H]2CC[C@@H](OCCO)[C@H](OC)C2)CC(=O)[C@H](C)/C=C(\C)[C@@H](O)[C@@H](OC)C(=O)[C@H](C)C[C@H](C)\C=C/C=C/C=C/1C	concentration at 24 h	2.28

###

assay: Drug uptake in Sprague-Dawley rat blood at 10 mg/kg, po after 4 hrs by HPLC method; format: ADME, organism-based; settings: read-out: Drug uptake

mol	concentration at 4 h (ng/mL)
CO[C@H]1C[C@@H]2CC[C@@H](C)[C@@](O)(O2)C(=O)C(=O)N2CCCC[C@H]2C(=O)O[C@H]([C@H](C)C[C@@H]2CC[C@@H](OCCO)[C@H](OC)C2)CC(=O)[C@H](C)/C=C(\C)[C@@H](O)[C@@H](OC)C(=O)[C@H](C)C[C@H](C)\C=C/C=C/C=C/1C	61.4

###

experiment: Half life in Sprague-Dawley rat at 10 mg/kg, po; type: ADME, organism-based; settings: in vivo

mol	half-life [h]
CO[C@H]1C[C@@H]2CC[C@@H](C)[C@@](O)(O2)C(=O)C(=O)N2CCCC[C@H]2C(=O)O[C@H]([C@H](C)C[C@@H]2CC[C@@H](OCCO)[C@H](OC)C2)CC(=O)[C@H](C)/C=C(\C)[C@@H](O)[C@@H](OC)C(=O)[C@H](C)C[C@H](C)\C=C/C=C/C=C/1C	2.2
